pKi for UniProt P41595 - collated from the literature.
Sequence (P41595 whole entry): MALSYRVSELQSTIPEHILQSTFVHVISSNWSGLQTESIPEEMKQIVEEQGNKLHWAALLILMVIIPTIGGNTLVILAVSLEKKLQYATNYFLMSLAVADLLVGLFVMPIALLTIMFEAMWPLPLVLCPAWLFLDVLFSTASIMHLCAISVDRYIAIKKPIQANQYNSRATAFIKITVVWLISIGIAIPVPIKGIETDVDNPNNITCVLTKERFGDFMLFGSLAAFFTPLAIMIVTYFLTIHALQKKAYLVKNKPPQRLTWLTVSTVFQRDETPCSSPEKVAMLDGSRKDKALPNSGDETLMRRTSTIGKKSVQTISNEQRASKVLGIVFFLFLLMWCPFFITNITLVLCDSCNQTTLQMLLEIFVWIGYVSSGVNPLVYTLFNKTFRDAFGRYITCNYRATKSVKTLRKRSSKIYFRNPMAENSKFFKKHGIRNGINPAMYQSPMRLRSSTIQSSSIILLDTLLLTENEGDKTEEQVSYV
pKi: −log10 of the molar value.

compound	target_system	operator_symbol	pKi
COc1ccc(N2CC=C(c3ccc(F)cc3)C2=O)cc1OCCN1CCCCC1	UniProt P41595	=	6.00
O=C1N(c2ccc(OCCN3CCCCC3)nc2)CCN1c1ccc(Cl)c(Cl)c1	UniProt P41595	=	6.80
COc1ccc(Cl)cc1C(=O)CCCCN1CCC2(CC1)NC(=O)NC2=O	UniProt P41595	=	7.30
COc1ccc(C2CCN(c3cccc(F)c3)C2=O)cc1OCCN1CCCCC1 (stereo not given)	UniProt P41595	<	6.10
COc1ccc(N2CCC(c3ccc(OC)c(OCCN4CCCCC4)c3)C2=O)cc1Cl (stereo not given)	UniProt P41595	=	5.80
